Target: recombinant human TGR5 (Homo sapiens, UniProt Q8TDU6)
Sequence (Q8TDU6 1-330): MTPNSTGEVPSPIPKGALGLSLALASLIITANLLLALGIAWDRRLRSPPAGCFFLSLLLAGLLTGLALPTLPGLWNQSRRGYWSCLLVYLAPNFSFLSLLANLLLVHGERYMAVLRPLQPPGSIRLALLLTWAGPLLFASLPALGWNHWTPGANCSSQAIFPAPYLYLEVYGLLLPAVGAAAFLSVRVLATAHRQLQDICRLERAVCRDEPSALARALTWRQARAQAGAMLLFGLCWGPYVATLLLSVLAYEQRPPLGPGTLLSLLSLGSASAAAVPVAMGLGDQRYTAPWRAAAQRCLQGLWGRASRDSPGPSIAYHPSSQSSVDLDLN
Assay: cAMP assay (cAMP accumulation, HTRF) in CHOK1 cells stably expressing TGR5
Settings: CHOK1 cells stably expressing human TGR5, 30 minutes at RT, 1% DMSO
Protocol: The in vitro modulation of recombinant human TGR5 was determined as follows. A human TGR5 expression construct of human TGR5 was integrated into the genome of a CHOK1 cell line (Invitrogen). […] On the day of the cAMP accumulation assay, cells stably expressing the […] TGR5 construct were centrifuged at 1000 rpm for 5 minutes. […] The cells were counted using 1:2 dilution and then adjusted to 0.4-0.5×10^6 cells/mL in assay buffer, if necessary. […]
pEC50: −log10 of the molar value.
Measured parameter: pEC50

P = Cc1c(Cl)cccc1OCCOC(=O)N1C[C@@H]2C[C@@H]2c2c(-c3cnn(Cc4cc(C(=O)NC5(CC(=O)O)COC5)ccc4Cl)c3)cccc21 [Example 698]
Q = Cc1cccc(OCCCC(=O)N2CCCc3c(-c4cccc(COC(=O)N[C@@H](Cc5cncn5C)C(=O)O)c4)cccc32)c1C [Example 316]
Prompt: Compare the recorded pEC50 of P and Q ; state which is larger. Your answer should be the label attached to the chosen record.
Response: P

I = Cc1cccc(OCCCC(=O)N2C[C@H]3C[C@H]3c3c(-c4cnn(Cc5cccc(NC(=O)NCCC(=O)O)c5)c4)cccc32)c1C (single isomer, unassigned) [Example 249]
II = Cc1c(Cl)cccc1OCCCC(=O)N1CCSc2c(-c3cnn(Cc4c(F)cc(C(=O)NCCS(=O)(=O)O)cc4Cl)c3)cccc21 [Example 574]
Prompt: Compare the recorded pEC50 of I and II ; state which is larger. Your answer should be the label attached to the chosen record.
Response: II

I = Cc1c(Cl)cccc1OCCCC(=O)N1CCCOc2c(-c3cnn(Cc4cccc(NC(=O)NCC(=O)O)c4)c3)cccc21 [Example 521]
II = Cc1cccc(CCOCC(=O)N2CCCc3c(-c4cnn(Cc5cccc(C(=O)O)c5)c4)cccc32)c1C [Example 15]
Prompt: Compare the recorded pEC50 of I and II ; state which is larger. Your answer should be the label attached to the chosen record.
Response: I

---

Molecular target: recombinant human TGR5 (Homo sapiens)
Test: cAMP assay (cAMP accumulation, HTRF) in CHOK1 cells stably expressing TGR5
Settings: CHOK1 cells stably expressing human TGR5, 30 minutes at RT, 1% DMSO
Procedure: The in vitro modulation of recombinant human TGR5 was determined as follows. A human TGR5 expression construct of human TGR5 was integrated into the genome of a CHOK1 cell line (Invitrogen). […] On the day of the cAMP accumulation assay, cells stably expressing the […] TGR5 construct were centrifuged at 1000 rpm for 5 minutes. […] The cells were counted using 1:2 dilution and then adjusted to 0.4-0.5×10^6 cells/mL in assay buffer, if necessary. […]
pEC50: −log10 of the molar value.
Measured parameter: pEC50

[[record]]
compound = "Cc1cccc(OCCCC(=O)N2CC3CC3c3c(-c4cnn(Cc5cc(C(=O)O)ccc5Cl)c4)cccc32)c1C (stereo not drawn) [Example 69H]"
measured_parameter = "pEC50"
value_observed = 7.28

[[record]]
compound = "COC(=O)c1ccc(O)c(Cn2cc(-c3cccc4c3[C@H]3C[C@H]3CN4C(=O)OCCOc3cccc(Cl)c3C)cn2)c1 [Example 447]"
measured_parameter = "pEC50"
value_observed = 5.80

[[record]]
compound = "Cc1cccc(OCCCC(=O)N2CCCc3c(-c4cnn(Cc5cccc(C(=O)N[C@@H](C)C(=O)O)c5)c4)cccc32)c1C [Example 864]"
measured_parameter = "pEC50"
value_observed = 6.71

[[record]]
compound = "Cc1c(Cl)cccc1OCCCC(=O)N1CCSc2c(-c3cnn(Cc4cccc(C(=O)NCCS(=O)(=O)O)c4)c3)cccc21 [Example 564]"
measured_parameter = "pEC50"
value_observed = 7.31


A = Cc1c(Cl)cccc1OCCCC(=O)N1CCSc2c(-c3cnn(Cc4c(F)cc(C(=O)O)cc4Cl)c3)cccc21 [Example 358]
B = Cc1cccc(OCCCC(=O)N2CCCc3c(-c4cnn(Cc5cccc(NC(=O)C(N)C(O)(C(F)(F)F)C(F)(F)F)c5)c4)cccc32)c1C (stereo not drawn) [Example 500]
Prompt: Of the pair A and B , name the member with the lesser recorded pEC50. Your answer should be the label attached to the chosen record.
Response: B
(B: 6.71, A: 7.37)
